Biological target: hCB2 (Homo sapiens)
Construct: expressed in transfected cells; host or cells: HEK Flp-in
Assay: pERK AlphaLISA assay, HEK Flp-in hCB2 cells
Assay type: cell-based
Details: 4 min
propertyName: Behaviour in pERK pathway (in words)

CCOc1nc(NC23CC4CC(CC(C4)C2)C3)nc(N2CCN(CCOCCOCCN)CC2)n1 weak partial agonists
CCOc1nc(NC23CC4CC(CC(C4)C2)C3)nc(N2CCNCC2)n1 weak partial agonists

----------
Molecular target: hCB2 (Homo sapiens, UniProt P34972)
Construct: expressed in transfected cells; host or cells: HEK Flp-in
Sequence (P34972 whole entry): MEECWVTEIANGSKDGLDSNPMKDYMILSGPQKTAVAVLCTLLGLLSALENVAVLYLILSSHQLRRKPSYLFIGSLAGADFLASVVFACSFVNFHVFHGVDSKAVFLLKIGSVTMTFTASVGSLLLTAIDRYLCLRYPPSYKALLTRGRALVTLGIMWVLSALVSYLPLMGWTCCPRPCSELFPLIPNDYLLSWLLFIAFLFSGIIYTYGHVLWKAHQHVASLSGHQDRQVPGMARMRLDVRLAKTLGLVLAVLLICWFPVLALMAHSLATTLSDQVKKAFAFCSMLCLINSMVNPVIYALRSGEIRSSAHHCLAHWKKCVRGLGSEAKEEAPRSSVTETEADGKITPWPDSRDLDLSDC
Test: pERK AlphaLISA assay, HEK Flp-in hCB2 cells
Format: cell-based
Conditions: 4 min stimulation; 14 approximate (low potency); read-out: pERK (4 min) pEC50 (±SEM) (converted)
propertyName: EC50 (nM)
Give bare numbers, in nM.

CCOc1nc(NC23CC4CC(CC(C4)C2)C3)nc(N2CCN(CCF)CC2)n1 12.3
CCOc1nc(NC23CC4CC(CC(C4)C2)C3)nc(N2CCN(CCOCCOCCNC(=O)OC(C)(C)C)CC2)n1 1070
CCOc1nc(NC23CC4CC(CC(C4)C2)C3)nc(N2CCN(CCOCCOCCN)CC2)n1 537

Lab note: record EC50 of CCOc1nc(NC23CC4CC(CC(C4)C2)C3)nc(N2CCNCC2)n1 tested on hCB2 (Homo sapiens, UniProt P34972).
1820

----------
Biological target: hCB2 (Homo sapiens)
Construct: expressed in transfected cells; host or cells: HEK Flp-in
Experiment: Comparison of efficacy/potency and operational-model bias analysis between hCB2 pathways, reference CP 55,940
Format: cell-based
Conditions: relative to reference ligand CP 55,940
Marks after values point to notes of the source that are not given here.
propertyName: Internalisation – pERK ΔΔlogR (±SEM)

# count of solved cases: 4
compound	valueReported
CCOc1nc(NC23CC4CC(CC(C4)C2)C3)nc(N2CCN(CCOCCOCCNC(=O)OC(C)(C)C)CC2)n1	0.31 (0.13)
CCOc1nc(NC23CC4CC(CC(C4)C2)C3)nc(N2CCN(C)CC2)n1	0.76 (0.15)*
CCOc1nc(NC23CC4CC(CC(C4)C2)C3)nc(N2CCNCC2)n1	1.19 (0.16)***
CCOc1nc(NC23CC4CC(CC(C4)C2)C3)nc(N2CCN(CCF)CC2)n1	0.35 (0.13)

Shift focus to the following entry.
Give the value of Internalisation – pERK ΔΔlogR (±SEM) reported for the following: CCOc1nc(NC23CC4CC(CC(C4)C2)C3)nc(N2CCN(CCOCCOCCNC(C)=O)CC2)n1
0.93 (0.13)**

----------
Target: hCB2 (Homo sapiens, UniProt P34972)
Construct: expressed in transfected cells; host or cells: HEK Flp-in
Experiment: Comparison of efficacy/potency and operational-model bias analysis between hCB2 pathways, reference CP 55,940
Type: cell-based
Conditions: 10^ΔΔlogR, relative to CP 55,940
Please assign rule not met whenever cAMP – internalisation Bias factor is at or above 0.7, and rule met whenever it is below.

Example entries begin here.
molecule	assayedTarget	class
CCOc1nc(NC23CC4CC(CC(C4)C2)C3)nc(N2CCN(C)CC2)n1	hCB2 (Homo sapiens, UniProt P34972)	rule met
CCOc1nc(NC23CC4CC(CC(C4)C2)C3)nc(N2CCNCC2)n1	hCB2 (Homo sapiens, UniProt P34972)	rule not met
CCOc1nc(NC23CC4CC(CC(C4)C2)C3)nc(N2CCN(CCOCCOCCNC(C)=O)CC2)n1	hCB2 (Homo sapiens, UniProt P34972)	rule met
CCOc1nc(NC23CC4CC(CC(C4)C2)C3)nc(N2CCN(CCOCCOCCNC(=O)OC(C)(C)C)CC2)n1	hCB2 (Homo sapiens, UniProt P34972)	rule not met

Turning now to a further record.
A record lists CCCCCCC(C)(C)c1ccc([C@@H]2C[C@H](O)CC[C@H]2CCCO)c(O)c1 [CP 55,940, reference compound] . Is its cAMP – internalisation Bias factor below 0.7?
rule not met

Data origin, for the record: paper PMC6256112
